# key: entry, value: inhibition at 10 µM
Molecular target: human B1R receptor (Homo sapiens, UniProt P46663)
Construct: host or cells: CHO K1 cells (Chinese hamster ovary), stably transfected
Sequence (P46663 1-353): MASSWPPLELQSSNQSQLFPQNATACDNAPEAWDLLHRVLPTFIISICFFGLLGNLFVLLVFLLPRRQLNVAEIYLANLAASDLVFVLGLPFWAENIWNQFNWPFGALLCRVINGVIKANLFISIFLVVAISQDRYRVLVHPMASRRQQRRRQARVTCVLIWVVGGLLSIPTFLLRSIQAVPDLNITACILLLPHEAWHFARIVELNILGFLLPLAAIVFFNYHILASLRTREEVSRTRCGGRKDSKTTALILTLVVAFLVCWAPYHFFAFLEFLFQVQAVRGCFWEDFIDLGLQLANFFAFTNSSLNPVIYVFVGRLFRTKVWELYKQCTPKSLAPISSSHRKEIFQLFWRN
Assay: Functional study on the bradykinin receptor 1 (B1R), FLIPR Ca2+ assay, hB1R cells
Format: cell-based
Settings: CHO-K1, test substance 10 μM, agonist Lys-Des-Arg9-bradykinin 0.5 nM, % inhibition compared with the maximum achievable inhibition, read-out: B1R Antagonism, human [10 μM] % Inhibition
experimental.readout: inhibition at 10 µM (%)

{"compound": "Cc1cc(C)c(S(=O)(=O)N2CCCCC2COCC(=O)Nc2ccc(-n3ccnc3C)cc2)c(C)c1 (stereo not drawn)", "measured.value": 42.7}
{"compound": "O=C(COCC1CCCCN1S(=O)(=O)c1c(Cl)cccc1Cl)N1CCN(c2ccccc2F)CC1 (stereo not drawn)", "measured.value": 102}
{"compound": "COc1cc(C)c(S(=O)(=O)N2CCCCC2COCC(=O)Nc2cc(-c3ccc(Cl)cc3)n[nH]2)c(C)c1 (stereo not drawn)", "measured.value": 12.5}
